// pKi lookup, one value per entry
- Target entity: renal dehydropeptidase I (renal dipeptidase, E.C. 3.4.13.11) (Sus scrofa)
- Construct: solubilized preparation of […] isolated from hog kidneys
- Sequence (P22412 17-409): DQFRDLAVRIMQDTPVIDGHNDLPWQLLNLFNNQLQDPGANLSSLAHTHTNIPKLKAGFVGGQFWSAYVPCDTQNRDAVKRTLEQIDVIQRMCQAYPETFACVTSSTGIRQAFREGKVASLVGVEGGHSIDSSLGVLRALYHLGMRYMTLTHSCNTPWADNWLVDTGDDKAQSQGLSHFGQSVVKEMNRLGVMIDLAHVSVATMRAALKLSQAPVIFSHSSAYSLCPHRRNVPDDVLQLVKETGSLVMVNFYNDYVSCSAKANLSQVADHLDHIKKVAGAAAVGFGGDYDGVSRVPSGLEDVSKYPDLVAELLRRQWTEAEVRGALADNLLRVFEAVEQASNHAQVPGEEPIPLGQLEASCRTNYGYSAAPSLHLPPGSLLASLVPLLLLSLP
- Run description: In vitro screen: inhibition of hydrolysis of glycyldehydrophenylalanine (GDP) by solubilized renal dipeptidase
- Experimental conditions: Table I, structure II; hog kidney enzyme, GDP 0.05 mM, pH 7.1, 37° C., 275 nm
pKi: −log10 of the molar value.
Measured attribute: pKi

1. CC(C)/C=C(/CP(=O)(O)C(N)CC1CCCCC1)C(=O)O (centres unmarked) : 7.68
2. CC(C)/C=C(\CP(=O)(O)C(N)CC1CCCCC1)C(=O)O (centres unmarked) : 8.68

Data provenance is patent US5145990A.
